# Lookup of reported pIC50 keyed by entry
Tested on: HepG2 cells
test: HepG2 cytotoxicity assay
particulars: read-out: HepG2 cytotoxicity assay IC50; dose response confirmation
Bear in mind: pIC50 is minus log10 of a mol/L concentration; give just that figure.

Please review the following examples before continuing.
>  <compound>
COc1ccc2nccc([C@@H](O)CN3CCC(NCc4cc5c(F)ccc(F)c5[nH]4)CC3)c2c1.O=C(O)C(=O)O

>  <assayed system>
HepG2 cells

>  <pIC50>
4.83

$$$$
>  <compound>
COc1cccc(CC(=O)N2CCC(n3c(C)nc4ccc(F)cc43)CC2)c1

>  <assayed system>
HepG2 cells

>  <pIC50>
4.00

$$$$
>  <compound>
C#C[C@H]1O[C@@H](n2cnc3c(Nc4cc(Br)cc(C(F)(F)F)c4)ncnc32)[C@H](O)[C@@H]1O

>  <assayed system>
HepG2 cells

>  <pIC50>
4.24

$$$$
>  <compound>
Cc1cccc2nc(-c3ccc(-c4ccc(CN5CCCC(O)C5)cc4)cc3)[nH]c12.O=C(O)C(F)(F)F (centres unmarked)

>  <assayed system>
HepG2 cells

>  <pIC50>
4.89

$$$$
>  <compound>
CCCC(N)C(=O)NC1CCN(c2c(F)c(N)c3c(=O)c(C(=O)O)cn4c3c2Oc2ccccc2-4)C1.Cl (centres unmarked)

>  <assayed system>
HepG2 cells

>  <pIC50>
5.44

$$$$

Incoming: Reported pIC50 for Cc1nc(C)c(-c2ccc(Sc3ccc(Cl)cc3)cc2)c(O)c1Br : what is it?
Outgoing: 4.00

Incoming: Next compound: Cc1cc2c3c(N)nc(N)nc3ccc2n1C(C)C
Outgoing: 7.48

Incoming: Next compound: COc1cccc(CC(=O)N2CCC(n3c(C)nc4ccc(C)cc43)CC2)c1
Outgoing: 4.00

Values were extracted from paper PMC6753678.
